Assay: Quantitative High-Throughput drug screen in 47 multiple myeloma cell lines against the NCATS MIPE library collection: MOLP8_DSMZ cell viability assay (AID 1918977); note: nearly all actives have a fitted effect of over 45% in size
Conditions: MOLP8 myeloma viability, CellTiter-Glo ATP luminescence, 48 h; series mostly up to 45.8 µM
Inconclusive results are not listed. The source made the active and inactive calls. Calls come from the whole dose curve; as a rule, active = well fitted cell-killing curve with a large enough effect; inconclusive = small, poorly fitted or top-dose-only effect, or effect the other way; inactive = no such curve, though single readings can be large or run the other way.
Log the outcome using a class from active, inactive

# count of solved cases: 5
Input: Just curious, what result did CCCCc1nc2cc(C=CC(=O)NO)ccc2n1CCN(CC)CC get here?
Output: active

Input: Write down the call the test reported for this compound. Item: Cn1cc(-c2[nH]c3cc(NC(=O)[C@H](N)C4CCCCC4)cc4c3c2C=NNC4=O)cn1
Output: active

Input: Can you look up the reported call for CCC[C@H](NC(=O)C(C#N)=Cc1cccc(Br)n1)c1ccccc1 for me?
Output: active

Input: Query: recorded result category for CN(C1CCc2c(c3ccccc3n2CC(=O)O)C1)S(=O)(=O)c1ccc(F)cc1 (centres undefined) in this test
Output: inactive

Input: Please let me know the test result on file for CC1=C(CO)C(=O)O[C@@H]([C@@H](C)[C@H]2CC[C@H]3[C@@H]4C[C@H]5O[C@]56[C@@H](O)C=CC(=O)[C@]6(C)[C@@H]4CC[C@]23C)C1 .
Output: active

***
Input: Test call for this compound, please: CCn1nnc2c(N3CCOCC3)nc(-c3ccc(NC(=O)Nc4ccc(C(=O)N5CCN(C)CC5)cc4)cc3)nc21
Output: active

Input: How was COc1cc2nccc(Oc3ccc(NC(=O)C4(C(=O)Nc5ccc(F)cc5)CC4)cc3)c2cc1OC classified in this test?
Output: active

Input: Look up the recorded call for C1=CCOCc2cc(ccc2OCCN2CCCC2)Nc2nccc(n2)-c2cccc(c2)OCC1 in this test.
Output: active

Input: Hello, I am checking results. What call was entered for COC(=O)Nc1ccc(-c2nc(N3CCOCC3)c3cnn(C4CCN(Cc5cccnc5)CC4)c3n2)cc1 ?
Output: active

Input: Hi team, can someone confirm the assay call for N#CCNC(=O)c1ccc(-c2ccnc(Nc3ccc(N4CCOCC4)cc3)n2)cc1 ?
Output: active

Input: // param item: Cc1cc(Nc2cc(N3CCN(C)CC3)nc(C=Cc3ccccc3)n2)n[nH]1 ; yields the recorded call
Output: active

Input: Assay result, entry CN(C)CC=CC(=O)Nc1cc2c(Nc3ccc(F)c(Cl)c3)ncnc2cc1O[C@H]1CCOC1 — outcome?
Output: active

Input: # outcome recorded in this test, key = CC(C)c1noc(N2CCC(COc3ccc(-c4ccc(S(C)(=O)=O)cc4)nc3)CC2)n1
Output: active

Input: So what was the verdict on Cc1cc(Nc2ncnc3ccc(-c4ccc(CNCCS(C)(=O)=O)o4)cc23)ccc1Oc1ccn2ncnc2c1 in this test?
Output: active

Input: Test call for this compound, please: CC(=O)Nc1sc2c(c1-c1nc3ccccc3s1)CNC2
Output: active

Input: Recorded test outcome, item Nc1ccc(S(=O)(=O)Nc2ncccn2)cc1
Output: inactive

Input: Recorded test call requested for COC(=O)C[C@](O)(CCCC(C)(C)O)C(=O)O[C@@H]1C(OC)=C[C@]23CCCN2CCc2cc4c(cc2[C@H]13)OCO4
Output: inactive

Input: What outcome does the record of this test show for CCOC(=O)C1=C(C)NC2=C(C(=O)CC(C)(C)C2)C1c1ccc(-c2ccccc2)cc1 (centres undefined) ?
Output: active

Input: What was the test verdict on CC(C)c1cc(C(=O)N2Cc3ccc(CN4CCN(C)CC4)cc3C2)c(O)cc1O ?
Output: active

====

Test: qHTS of pediatric cancer cell lines to identify multiple opportunities for drug repurposing: Primary screen for DAOY cells (AID 1347090); note: nearly all actives have a fitted effect of over 55% in size
Conditions: DAOY medulloblastoma viability, CellTiter-Glo luminescence, 48 h; series mostly up to 46 µM
Protocol: Drug repurposing or repositioning has been offered as a strategy for drug development in oncology programs. […] [1] Shen, M et al. Quantitative high-throughput phenotypic screening of pediatric cancer cell lines identifies multiple opportunities for drug repurposing. […] Cells were assayed in growth media at a density of 500-1,000 cells/well. […] After a 15 min incubation at room temperature, samples were analyzed for luminescence intensity using a ViewLux High-throughput CCD imager equipped with clear filters.
Inconclusive results are not listed. Calls of active or inactive are those of the source. The call rests on the fitted dose curve; in most records, active means well fitted cell-killing curve with a large enough effect; inconclusive means small, poorly fitted or top-dose-only effect; inactive means flat fitted curve, though single readings scatter.
// one of Y = active, N = inactive, no free text

These recorded examples may help you get a feel for the data.
Input: Can you look up the reported call for O=C(NC1CCNCC1)c1[nH]ncc1NC(=O)c1c(Cl)cccc1Cl for me?
Output: Y

Input: Please share the test call associated with Cc1nc(N)ncc1-c1nc(N2CCOCC2)c2sc(C(C)(C)O)cc2n1 .
Output: Y

Input: Please indicate how the test categorized Cc1c(Cn2c(C)nc3c(C(=O)O)cc(N4CCOCC4)cc32)cccc1C(F)(F)F .
Output: Y

Input: Dear colleague, could you share the recorded outcome for C=C1C(=CC=C2CCCC3(C)[C@@H]([C@H](C)C=CC=CC(O)(CC)CC)CC[C@@H]23)C[C@@H](O)C[C@@H]1O (some centres undefined) when you have a moment?
Output: Y

Input: Kindly provide the recorded test outcome for the following molecule: CS(=O)(=O)c1ccc(-c2cnc(N)c(C(=O)Nc3ccccc3)n2)cc1
Output: N

***
Input: Dear colleague, could you share the recorded outcome for COC(=O)Nc1ccc(-c2nc(N3CCOCC3)c3cnn(C4CCN(Cc5cccnc5)CC4)c3n2)cc1 when you have a moment?
Output: Y

Input: Just curious, what result did COc1ccc(-c2cc3c(C)nc(N)nc3n(C3CCC(OCCO)CC3)c2=O)cn1 (centres undefined) get here?
Output: Y

====

Test: qHTS of pediatric cancer cell lines to identify multiple opportunities for drug repurposing: Primary screen for LAN-5 cells (AID 1347100)
Settings: LAN-5 neuroblastoma viability, CellTiter-Glo luminescence, 48 h; series mostly up to 46 µM
Results filed as inconclusive are left out. Activity calls are given as the source filed them. Calls follow the shape of the dose curve; as a rule, active = well fitted cell-killing curve with a large enough effect; inconclusive = small, poorly fitted or top-dose-only effect; inactive = no such curve, though single readings can be large or run the other way.
The reply should name one outcome from 1 (yes) (active), 0 (no) (inactive)

Input: Hey, what did the test say about Cc1cnc(-c2cnc(NCCNc3ccc(C#N)cn3)nc2-c2ccc(Cl)cc2Cl)[nH]1 ?
Output: 0 (no)

Input: Please let me know the test result on file for CN1CCN(Cc2ccc(NC(=O)Nc3ccc(Oc4cc(NC(=O)C5CC5)ncn4)cc3)cc2C(F)(F)F)CC1 .
Output: 1 (yes)

Input: GET /call?item= C1Cc2[nH]nc(-c3nn[nH]n3)c2C1 returns the recorded outcome of this test.
Output: 0 (no)

Input: Write down the call the test reported for this molecule. Item: COC(=O)Nc1ccc(-c2nc(N3CCOCC3)c3cnn(C4CCN(Cc5cccnc5)CC4)c3n2)cc1
Output: 1 (yes)

Input: Query: recorded result category for Cc1[nH]c2ccccc2c1CCNCc1ccc(C=CC(=O)NO)cc1 in this test
Output: 1 (yes)

Input: Field: outcome | Entry: O=C(O)c1ccc2cc(-c3ccc(O)c(C45CC6CC(CC(C6)C4)C5)c3)ccc2c1
Output: 1 (yes)

More entries:
Input: Check the results log: what was the call for Cc1ccc2nc(NC(=O)CSc3nc4c(c(=O)n3-c3ccccc3)SCC4)sc2c1 ?
Output: 1 (yes)

Input: I'd appreciate the recorded outcome for CC[C@@H]1C(=O)N(C)c2cnc(Nc3ccc(C(=O)NC4CCC(N5CCN(CC6CC6)CC5)CC4)cc3OC)nc2N1C(C)C (stereo partly drawn) from this test.
Output: 1 (yes)

Input: I'd appreciate the recorded outcome for CCN(CC)CCCCNc1ncc2cc(-c3cc(OC)cc(OC)c3)c(NC(=O)NC(C)(C)C)nc2n1 from this test.
Output: 1 (yes)

====

Assay: Quantitative High-Throughput drug screen in 47 multiple myeloma cell lines against the NCATS MIPE library collection: EJM_DSMZ cell viability assay (AID 1918926; note: potency is the fitted concentration of half-maximal effect; nearly all actives have a fitted effect of over 30% in size)
Conditions: EJM myeloma cell viability, CellTiter-Glo ATP, 48 h; series mostly up to 45.8 µM
Inconclusive results are not listed. Active and inactive are the calls of the source. Calls follow the shape of the dose curve; as a rule, active = well fitted cell-killing curve with a large enough effect; inconclusive = small, poorly fitted or top-dose-only effect, or effect the other way; inactive = no such curve, though single readings can be large or run the other way.
observable: Potency

Solved entries:
Entry O=C(CCCCCCNC(=O)c1cnc(N(c2ccccc2)c2ccccc2)nc1)NO , Potency reported as 13200 nM (active)

response.value for CCC1=C[C@@H]2CN(C1)Cc1c([nH]c3ccccc13)[C@@](C(=O)OC)(c1cc3c(cc1OC)N(C)[C@@H]1[C@@](O)(C(=O)OC)[C@H](OC(C)=O)[C@]4(CC)C=CCN5CC[C@]31[C@@H]54)C2 (field: Potency) = 1050 nM (active)

Measured Potency, Cc1[nH]nc2ccc(-c3cncc(OC[C@@H](N)Cc4ccccc4)c3)cc12 : 1870 nM (active)

Looking up NC(=O)c1c(OCc2c(F)cc(Br)cc2F)nsc1NC(=O)NCCCCN1CCCC1 , I see its Potency listed as 20900 nM (active)

Briefly, Potency measured for O=C(Nc1ncc(-c2cc(C(F)F)nn2-c2c(Cl)cccc2Cl)s1)C1CC1 : 209 nM (active)

Input CC1(O)CC(c2nc(-c3ccc4ccc(-c5ccccc5)nc4c3)c3c(N)nccn23)C1 (configuration not stated) . Output Potency: 6620 nM (active)

State recorded Potency for all listed compounds.
1. CN1CCN(c2cc(C(=O)Nc3ccc4c(c3)-c3c(c(C(N)=O)nn3-c3ccc(F)cc3)CC4)c(Cl)cn2)CC1
2. CCn1nnc2c(N3CCOCC3)nc(-c3ccc(NC(=O)Nc4ccc(C(=O)N5CCN(C)CC5)cc4)cc3)nc21
3. CNC(=O)c1ccc(N2C(=S)N(c3cnc(C#N)c(C(F)(F)F)c3)C(=O)C23CCC3)cc1F
4. C=C1C(=CC=C2CCCC3(C)[C@@H]([C@H](C)C=CC=CC(O)(CC)CC)CC[C@@H]23)C[C@@H](O)C[C@@H]1O (some centres not stated)

Output:
833 nM (active)
469 nM (active)
166 nM (active)
18700 nM (active)

Items follow; give Potency for each.
1. CC[C@H](CO)Nc1nc(NCc2ccccc2)c2ncn(C(C)C)c2n1
2. c1ccc2c(CCNc3ccc(Nc4ccncc4)cc3)c[nH]c2c1
3. CC=C1NC(=O)[C@H]2CSSCCC=C[C@H](CC(=O)N[C@H](C(C)C)C(=O)N2)OC(=O)[C@H](C(C)C)NC1=O
4. CC[C@H]1CN2CCc3cc(OC)c(OC)cc3[C@H]2C[C@@H]1C[C@@H]1NCCc2cc(OC)c(OC)cc21
5. Cc1ccc(NC(=O)C2(c3ccc4c(c3)OC(F)(F)O4)CC2)nc1-c1cccc(C(=O)O)c1
6. C=C1C(=CC=C2CCC[C@]3(C)[C@@H]([C@H](C)C=C[C@H](C)C(C)C)CC[C@@H]23)C[C@@H](O)C[C@@H]1O

Output:
["26400 nM (active)", "14800 nM (active)", "29.6 nM (active)", "187 nM (active)", "83.3 nM (active)", "590 nM (active)"]
